Reported PBM binding z-score values for a set of sequences
# Tested on: THRa homodimer (NR concentration 90 nM)
# method-description: PBM binding z-score (relative to random genomic background probes); higher = stronger binding; sequences stand for … in GC…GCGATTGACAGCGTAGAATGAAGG
metric: PBM binding z-score

> print(dat)
                         sequence.code  observed.result
 1  TGAGTGAGGTTAAAGATCAGGGAACGTGGCGTCG            0.575
 2  TCTCGGAGGACAGGAAGGTCAGAGCTTTCCAGAG            0.256
 3  ATATGTAGGTTATCGGGTCATTCGGTTTGCGCAT             2.94
 4  TCTTGTAGATCAAGCATGTTAAGAAAGCCTGAGT           -0.856
 5  TCTAGTTGGTCACGGAGGTGACACACGACGGGTA            0.665
 6  ACAGACAGGTGAGTGAAGGTAACTCATCTGGACG           -0.651
 7  CCGACTGGGGCATAAGGTTAACATAAGCCAGCCC             1.06
 8  AGAATGAGCTTATTAAGATCAGGGAATTGCGGTC           -0.456
 9  CCTGCTAGGTTATGGTCAGCTAATCTACAGTATG           -0.417
10  CCGACTGGGGCTAGGTTACCATAACGCACAGCCA          -0.0667
11  CGTCCAAGGTCAGCAGGTCAGTGACAGCGACGTG             2.43
12  TCTCGTAGGACACGAAAGGTCAGAGCTCGACATC            0.778
13  CCATACGGGTCAAGGTTATAGCACGGGTGGTACG            0.691
14  CAAACTAGGTCACTGGAAGGTCAAAGTCCGCATG             2.43
15  CGAACTAGGTCATCCACGACAGTGAATACATTGA             1.22
16  CCTCGGAGGACTGAAGGTCAGAGCTGTCCGCTTT           -0.417
17  GCTGCTAGGTCAACCGATGGTCAGCTAAAGCTCG            0.689
18  AGAACGAGGGCAAAGAGTTGATAGCACGGGTGGC           -0.224
19  TAGGCTAGGTCATGGGCCAGTATACCACGCGAAC              1.2
20  TCTCGGAGGACACGACGGTCAGAGCTTTCCAGAG            0.161
21  TCATATAGGTAAATGCTAGGTGTAAGTCCGATCT           0.0913
22  TCTTATAGGTAAAGGTGAAAGTCGAACGATATGA            0.153
23  CGTCAAGGTTCAAGGTAACGTAACAGAAAGCAGC             1.01
24  AGTCAAAGTTCACTAGGTAGCGTAAGATTCAGCT           -0.346
25  ATCTCTAGGTAACCGAGTTCAGTGAATGCCGAAC            0.663
26  AGTCAAAGTTCAGGACGAGGTAACGAAAAGCACG             1.77
27  CCTTACGGATCACTGACAGGTTATAGCATTTGGA            0.628
28  ATCTCTATGTAAAGTTCAGTGAAAGATCGATAGA           -0.304
29  GCGACTGGGGCATCAGCAGGTTATCATAACTTAA           -0.305
30  CCAGACTGGTGAGAAGGTAACTCAGCCTCGATTA            -0.27
31  ATCGAAAGGTCGAGGTGAGTATGGAGAAAGGGAA            0.743
32  CCTGCCAGGTCAATGGTCAGCTAAAGCAGCTCGC              1.4
33  CCTACTGCGCCATCAGGTCATTGATATCAACGTT             3.56
34  CAAACTAGGTCAAAGAGGTCAAAGTCCGTGCGTA             2.33
35  CGTACTAGGTCAAGGACAGTGAATCTCCGCACGC             2.42
36  GTACCAAGGGGAATAGGTCGTTGATGAGTAGGCG           -0.309
37  TCTAGTTGGTCAAAGGTCACATACTCGAAATGCG             1.76
38  TTACCAAGGTGAAGGTCATTGATCCCTCTGTAGA             1.74
39  TCATATAGGTATACAGGTGAAAGTCCGTAAGTTA            0.585
40  AGAACGAGGGCAATGAGTTGAAAGCACGGGTGGC           -0.343
41  TCATATAGGTAATACAGGTGAACGTCGGCATCTA            0.563
42  CGAACTACGTCAAGGACAGTGAATCTCCGCACGC             1.13
43  TATGCTAGGTCAACGATGGTCAGCTAATCTGCTA            0.639
44  CGTCAAAGTTCAACTAAGCTAACGTAAAGCACGC            0.187
45  AGAACGTGGGCACGCTGAGTTGATAGCAGAGTAG           -0.747
46  ATCTCTAGGTAAAAGTTCGGTGAATCCCGAGGAT            0.177
47  TGAATGTGGTTATAAGATCAGGGAACGTTGCAAA           0.0859
48  CCTAGTTGGGCAAGGTCACACACGCTATAGGTAC             3.23
49  ATCTCTAGGTAAGAGTCAGTTCAGTGAAGAACGC            0.649
50  CTACCAAAGTGAACAAGGTCGTTGATTACTATTC             1.24
51  CCTACTGGGCCAAAGGTCAATGATTCCAATGCTC            0.607
